Origin of measurements: the supplement of paper PMC10567573

assay: protein stability index of a GFP-peptide fusion (GPS, HEK-293T) (PSI 1-6); higher = more stable; conditions: treatment: DMSO; c terminus: a fixed tail appended;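 note: 24-mer peptide tiles fused after GFP, lentivirally expressed, FACS-sorted into six equal bins by GFP/DsRed ratio, decoded by Illumina sequencing, PSI is the read-weighted mean bin number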
Response key: met means protein stability index >= 3; not met means protein stability index < 3.

{"Sequence text": "PPLWAASAAGHLKVVQSLLNHGAS [FEM1C]", "Class": "not met"}
{"Sequence text": "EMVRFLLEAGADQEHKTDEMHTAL [ANKRD17]", "Class": "not met"}
{"Sequence text": "TYQVHDYLRSKLCSLYENDCIFDK [PPP2R2C]", "Class": "not met"}
{"Sequence text": "MDPQNQHGSGSSLVVIQQPSLDSR [SPRY1]", "Class": "met"}
{"Sequence text": "LWPFAWLQVAGLSEEQLQEPITGW [LPCAT4]", "Class": "not met"}
{"Sequence text": "MYPESTTGSPARLSLRQTGSPGMI [KCNAB2]", "Class": "met"}
{"Sequence text": "SAEEVRFPVSVTQQSPAAVSMETY [C2CD2L]", "Class": "met"}
{"Sequence text": "QRLLGEDKFQWLAGLAPPSLFARA [ANKRD9]", "Class": "not met"}
{"Sequence text": "MDHPSREKDERQRTTKPMAQRSAH [CSNK1G1]", "Class": "met"}
{"Sequence text": "VIQAVQKSEEGHPFKAYLDVDITL [RTN3]", "Class": "not met"}
{"Sequence text": "KCRMEESNAERGTAEPFPRLHNLY [CBY2]", "Class": "not met"}

====

assay: protein stability index of a GFP-peptide fusion (GPS, HEK-293T) (PSI 1-6); higher = more stable; conditions: treatment: DMSO; c terminus: a fixed tail appended
Measurement name: protein stability index

{"Sequence text": "KAPSKLGLIISGPILQEGMDEEKL [DLC1]", "Measurement name": "protein stability index", "Numeric value": 4.47}
{"Sequence text": "RFLDYEMQNSNECKRNFVAVYDGS [NETO1]", "Measurement name": "protein stability index", "Numeric value": 2.96}
{"Sequence text": "MDEESELIQPQDQSCWAFLPDLCL [FBXO39]", "Measurement name": "protein stability index", "Numeric value": 3.45}
{"Sequence text": "RKRTAHERAKELYSSGEFSSGRKW [INTS4]", "Measurement name": "protein stability index", "Numeric value": 4.06}
{"Sequence text": "LSPDPEERPGAEGAPLLPPPLPPP [ACBD3]", "Measurement name": "protein stability index", "Numeric value": 5.27}
{"Sequence text": "KVRPSHKRCIVILREIPETTPIEE [LARP4]", "Measurement name": "protein stability index", "Numeric value": 2.59}
{"Sequence text": "DLSVEERSFVEKHRWPSNMYLKQL [RHOBTB3]", "Measurement name": "protein stability index", "Numeric value": 3.01}
{"Sequence text": "KILDELEKVLDQVETELQRRNEET [GDAP1]", "Measurement name": "protein stability index", "Numeric value": 3.08}
{"Sequence text": "RKMLEQGYSPNGRDANGWTLLHFS [ASB7]", "Measurement name": "protein stability index", "Numeric value": 2.34}
{"Sequence text": "MPIPEDLSTTSGGQQSSKSDRVVA [IKZF1]", "Measurement name": "protein stability index", "Numeric value": 5.44}
{"Sequence text": "IIQYRLPMKKNNNLYSWDDFMELG [ACSBG2]", "Measurement name": "protein stability index", "Numeric value": 2.12}
{"Sequence text": "FYGHSHHSHHGHPSHQSHSLPNRR [C10orf62]", "Measurement name": "protein stability index", "Numeric value": 3.99}
{"Sequence text": "KLREKERKKEAKRKISSLSFTLEE [FAM50A]", "Measurement name": "protein stability index", "Numeric value": 4.29}
